parameter: logP

smiles_repr=CCc1ccc(NS(=O)(=O)c2ccc(N)cc2)cc1 parameter=logP reading=2.62
smiles_repr=CCOc1ccc(NS(=O)(=O)c2ccc([N+](=O)[O-])cc2)cc1 parameter=logP reading=2.23
smiles_repr=O=S(=O)(Nc1ccc(Cl)cc1)c1ccccc1 parameter=logP reading=3.44

---

# protocol: method code SF-AS, from DOI: 10.1021/je900189v
Cut-off 2 on logP, inclusive. At or above means condition met; below means condition not met.

smiles_repr=O=S(=O)(Nc1ccccc1Cl)c1ccccc1 qualitative_label="condition met"
smiles_repr=Cc1ccc(NS(=O)(=O)c2ccc([N+](=O)[O-])cc2)nc1 qualitative_label="condition not met"
smiles_repr=COc1c(Cl)cccc1NS(=O)(=O)c1ccc(N)cc1 qualitative_label="condition met"
smiles_repr=Nc1ccc(S(=O)(=O)Nc2ccc(Cl)cc2)c(Cl)c1 qualitative_label="condition met"
smiles_repr=Cc1ccc(NS(=O)(=O)c2ccc(N)cc2)c(Cl)c1 qualitative_label="condition met"
smiles_repr=Nc1ccc(S(=O)(=O)Nc2ccc(Cl)cc2)cc1 qualitative_label="condition met"
smiles_repr=O=S(=O)(Nc1ncccc1Cl)c1ccccc1 qualitative_label="condition not met"
smiles_repr=Nc1ccc(S(=O)(=O)Nc2ccc(I)cc2)cc1 qualitative_label="condition met"
smiles_repr=Nc1ccc(S(=O)(=O)Nc2ccc([N+](=O)[O-])cc2Br)cc1 qualitative_label="condition not met"
